- Method notes: Drug metabolism in human kidney microsomes assessed as drug glucuronidation in presence of BSA by LC-MS/MS method
- Type: ADME
- Assay context: read-out: KmH
Recorded metric: Km (µM)

1) CC1=NN(c2ccccc2)C(=O)C1; 8.7
